Ref: the Human Domainome abundance scans (Beltran et al. 2025)

B1: Tyrosine-protein kinase BTK, residues 215 to 273; numbered along this chain, Q06187 (parent)
chain: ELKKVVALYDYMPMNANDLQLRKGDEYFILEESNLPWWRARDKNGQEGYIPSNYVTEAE

Variants of: B1
Test: abundance fitness (aPCA) (normalised: wild type 0, dead -1); higher = more abundant; growth selection in yeast, the domain comes from the species named
Details: Homo sapiens
Each entry falls in a class defined on abundance fitness; the bands are low-valued = under -0.2, mid-valued = from -0.2 up to -0.02, high-valued = -0.02 and over

* Y27L | mid-valued
* P51E | low-valued
* T56M | high-valued
* W38Y | high-valued
* L35R | high-valued
* G48W | low-valued
* Y54C | mid-valued
* P51C | mid-valued
* S33H | mid-valued
* W38D | mid-valued
* I50G | low-valued
* S52V | mid-valued
* K43A | high-valued
* N34P | high-valued
* R22T | mid-valued
* L30S | mid-valued
* L21W | low-valued
* N44S | mid-valued
* P36E | mid-valued
* A40K | low-valued
* P36F | low-valued
* Y54L | mid-valued
* L21R | low-valued
* G24P | low-valued
* Y49T | high-valued
* E59G | high-valued
* W37K | high-valued
* F28V | high-valued
* N17T | high-valued
* V55M | low-valued
* Y54G | high-valued
* I50H | low-valued
* R39C | mid-valued
* R22E | mid-valued
* I29W | low-valued
* R39L | mid-valued
* T56H | high-valued
* P36R | mid-valued
* W38K | high-valued
* P36A | high-valued
* P51Q | mid-valued
* I50R | low-valued
* K43E | high-valued
* L35A | mid-valued
* G45A | mid-valued
* Y49C | mid-valued
* E57V | high-valued
* G45C | mid-valued
* N44K | high-valued
* L30C | low-valued
* G48F | low-valued
* Q46H | high-valued
* V55Y | low-valued
* E57N | high-valued
* K23E | mid-valued
* Y27D | low-valued
* G48Q | low-valued
* Y54N | low-valued
* W37E | high-valued
* L30K | mid-valued
* Q20M | mid-valued
* D25Y | mid-valued
* T56L | mid-valued
* D42H | low-valued
* N53C | mid-valued
* Y54H | high-valued
* N34Y | mid-valued
* V55A | low-valued
* D42G | mid-valued
* D18Y | high-valued
* W37S | high-valued
* I50V | high-valued
* A58Q | mid-valued
* Q46Y | mid-valued
* S33F | high-valued
* I29G | low-valued
* R22N | high-valued
* S33T | high-valued
* Y49P | low-valued
* F28S | high-valued
* I50E | low-valued
* Q46P | low-valued
* I29K | low-valued
* R22W | mid-valued
* E47Q | mid-valued
* A58F | high-valued
* T56A | high-valued
* E26A | mid-valued
* L21V | mid-valued
* Q46N | high-valued
* G24V | low-valued
